# System: HL-60
# method: NCI tumour cell line growth inhibition, 48 h
Active and inactive are the calls of the source. Rule as the data show it: active = GI50 up to about 1.1 µM and inactive = higher.
Bench note: report the call from active, inactive

compound | system | qualitative_label
O=c1[nH]c2cc3cccnc3c(Cl)c2nc1C(F)(F)F | HL-60 | inactive
CCCCNCC(=O)O[C@]1(CC)C(=O)OCc2c1cc1n(c2=O)Cc2cc3ccccc3nc2-1 | HL-60 | active
Oc1ccc(Cc2nccc3cc(O)c(O)cc23)cc1O | HL-60 | inactive
O=C1CSC(c2ccccc2[N+](=O)[O-])N1c1ccc(-c2ccc(-n3c(-c4ccccc4)nc4ccccc4c3=O)cc2)cc1 (stereo unspecified) | HL-60 | inactive
Nc1ccc2nc3n(c2c1)C(=O)c1ccccc1-3 | HL-60 | inactive
COc1cccc2c1OC(c1ccc(Cl)cc1)C([N+](=O)[O-])=C2 (stereo unspecified) | HL-60 | inactive

INPUT: Test call, this compound: "CON(C)c1nc(N(C)OC)nc(N(C)OC)n1"
OUTPUT: inactive

INPUT: Test call, this compound: "CN(C)Cc1cc(C(=O)/C=C/c2ccc(Cl)cc2)cc(CN(C)C)c1O"
OUTPUT: inactive

----------
# Tested on: COLO 205
# method: NCI tumour cell line growth inhibition, 48 h
Activity calls are given as the source filed them. No stated cut-off is given here; in the data, active = GI50 up to about 1.1 µM and inactive = higher.
Please provide measured GI50 for the entries that follow.

molecule | val
COC(=O)c1cc(-c2cccn2C)c2c(c1C(=O)OC)c1ccccc1n2C | 32.9 µM (inactive)
CC1CCOc2ccc(cc2)/C=N\c2ccc(cc2)-c2ccc(cc2)/N=C\c2ccc(cc2)OCC1 | > 100 µM (inactive)
O=c1ccn([C@@H]2O[C@H](CO)[C@@H](O)[C@H]2F)c(=O)[nH]1 | > 100 µM (inactive)
CC[P+]1(c2ccccc2)[C@@H](C)CC[C@@H]1C | 85.1 µM (inactive)

The recorded GI50 for entry CC[C@H](C)[C@H]1NC(=O)[C@@H](NC(=O)[C@@H](CC(C)C)N(C)C(=O)C2CCCN2C(=O)[C@H](C)O)[C@@H](C)OC(=O)[C@H](Cc2ccc(OC)cc2)N(C)C(=O)[C@@H]2CCCN2C(=O)[C@H](CCCCNC(=O)OCc2ccccc2)NC(=O)[C@H](C)C(=O)[C@H](C(C)C)OC(=O)C[C@@H]1O (stereo not given in full) equals 3.91 µM (inactive)

----------
# Tested on: SW-620
# method: NCI tumour cell line growth inhibition, 48 h
Calls of active or inactive are those of the source. Cut-off read from the data, not from the text of the source: active = GI50 up to about 1.1 µM and inactive = higher. Square brackets hold non-standard residues; d marks the D form. Peptide text beside a SMILES is read from it. * marks the point of attachment. Phe(4-NO2) = N[CH](Cc1ccc([N+](=O)[O-])cc1)C(=O)O; Cbz = O=C(OCc1ccccc1)*
Bench note: report the call from active, inactive

These solved cases illustrate the format of a correct answer.
compound | qualitative_label
CC(C)=CCC/C(C)=C\CC/C(C)=C/CO | inactive
CCOC(=O)[C@H]1C[C@@H](C(=O)c2ccccc2)N2N=C(c3ccc(Br)cc3)C=C[C@H]12 | inactive
COc1ccc2c(c1)CCC1C3(CCCC21C)OCCO3 (centres undefined) | inactive
CCOC(=O)/C(C#N)=C1\c2c([nH]c(=S)[nH]c2=O)Oc2ccc3ccccc3c21 | inactive

INPUT: Test call, this compound: "Cc1cs/c(=N\C(P(=O)(O)O)P(=O)(O)O)n1C"
OUTPUT: inactive

INPUT: Test call, this compound: CCCCCCCCC[C@@H]1CC(=O)OCC2OC(O[C@H](CCCCCCCCC)CC(=O)OCC3OC(O[C@H](CCCCCCCCC)CC(=O)OCC4OC(O1)C(O)C(O)C4O)C(O)C(O)C3O)C(O)C(O)C2O (some centres undefined)
OUTPUT: inactive

INPUT: Test call, this compound: "N#Cc1c(OCCF)c2ccccc2n2c1nc1ccccc12"
OUTPUT: inactive

INPUT: Test call, this compound: "COC(=O)/C=C(/C(=O)OC)c1c(C)c(C)c2c(C)cc(C)cc(C)c1-2"
OUTPUT: inactive

INPUT: Test call, this compound: NNC(=S)N/N=C(/C(=O)Nc1ccc(Cl)c(Cl)c1)C(C1OC(=O)c2ccccc21)[N+](=O)[O-] (centres undefined)
OUTPUT: inactive

INPUT: Test call, this compound: CC(=O)O[C@H]1CCC2[C@@H]3CCC4Nc5[nH]ncc5C[C@]4(C)C3CC[C@@]21C (some centres undefined)
OUTPUT: inactive

INPUT: Test call, this compound: CCOC(=O)CCC(NC(=O)OCc1ccccc1)C(=O)NC(CCC(=O)OCC)C(=O)NC(CCC(=O)OCC)C(=O)NC(CCC(=O)OCC)C(=O)NC(CCC(=O)OCC)C(=O)NC(Cc1ccc([N+](=O)[O-])cc1)C(=O)NC(CCC(=O)OCC)C(=O)NC(CCC(=O)OCC)C(=O)NC(CCC(=O)OCC)C(=O)NC(CCC(=O)OCC)C(=O)NC(CCC(=O)OCC)C(=O)OCC (centres undefined) (Cbz-E(OEt)E(OEt)E(OEt)E(OEt)E(OEt)[Phe(4-NO2)]E(OEt)E(OEt)E(OEt)E(OEt)E(OEt)-OEt; configuration not given here)
OUTPUT: inactive

INPUT: Test call, this compound: "CCN(CC)CCNC(=O)c1nn(-c2ccc(Cl)cc2)c2c1CCc1cc(OC)ccc1-2"
OUTPUT: inactive

INPUT: Test call, this compound: COC(=O)C1C(=O)NC2(C)CC1c1ccccc1O2 (centres undefined)
OUTPUT: inactive

INPUT: Test call, this compound: "O=C1CCCC/C1=C(\Br)I"
OUTPUT: inactive

INPUT: Test call, this compound: "CSC1=NN=C(SC)NN1"
OUTPUT: active

INPUT: Test call, this compound: "Cc1c(C(=O)OCc2ccccc2)[n+]([O-])c2cc(F)c(F)cc2[n+]1[O-]"
OUTPUT: active

INPUT: Test call, this compound: "CNC1=C/C(=N/C2=CC(=N/C(=C\C#N)C(C)(C)O)/OC2(C)C)OC1(C)C"
OUTPUT: inactive

INPUT: Test call, this compound: "CS(=O)(=O)N(CC(=O)O)Cc1ccccc1"
OUTPUT: inactive

INPUT: Test call, this compound: CC(=O)OC1CC2(C)C(OC(C)=O)CC1C2(C)C (centres undefined)
OUTPUT: inactive

----------
Please provide measured GI50 for the entries that follow.
# Tested on: MDA-N
# method: NCI tumour cell line growth inhibition, 48 h
Active and inactive are the calls of the source. No stated cut-off is given here; in the data, active = GI50 up to about 1.1 µM and inactive = higher.

compound | system | GI50
COCCCNc1nc(N)c(C#N)c(C#N)c1C#N | MDA-N | > 10 µM (inactive)

Please report GI50 for every entry that follows.
1. O=C(O)C(Cc1ccccc1)N1C(=O)c2ccccc2C1=O (stereo unspecified)
2. COc1ccc(OC2OC(CO)C(O)C(O)C2O)cc1 (stereo unspecified)

OUTPUT:
["> 100 µM (inactive)", "> 100 µM (inactive)"]

----------
# Tested on: SF-268
# method: NCI tumour cell line growth inhibition, 48 h
Activity calls are given as the source filed them. No stated cut-off is given here; in the data, active = GI50 up to about 1.1 µM and inactive = higher.
Please provide measured GI50 for the entries that follow.

molecule | GI50
S=c1[nH]c2c(Cl)c(Cl)c(Cl)c(Cl)c2[nH]1 | 12.1 µM (inactive)
C[n+]1c(-c2ccc(/C=N/NC(=O)C(=O)N/N=C/c3ccc(-c4cn5ccsc5[n+]4C)cc3)cc2)cn2ccsc21 | > 100 µM (inactive)
O=C(C1OC1c1ccc(F)cc1)C12CC3CC(CC(C3)C1)C2 (configuration not stated) | 22.4 µM (inactive)

Please report GI50 for every entry that follows.
1. Cc1ccc(C2=C(Cl)C(=O)C(c3ccc(C)cc3)=C(Cl)C2=O)cc1
2. CN1Cc2cc3cc4c(cc3nc2N(C)C1)OCCO4
3. O=C(CC(C(=O)c1ccco1)c1ccco1)c1ccco1 (configuration not stated)
4. O=C(/C=C/c1ccco1)c1ccc(NCc2nc3ccccc3[nH]2)cc1
5. O=[N+]([O-])C(=C(Nc1cccc2cccnc12)Nc1cccc2cccnc12)C(Cl)=C(Cl)Cl
6. COC(=O)C1=NC(=S)NC(c2ccccc2)C1c1nc2ccccc2s1 (configuration not stated)

OUTPUT:
1: > 100 µM (inactive); 2: > 100 µM (inactive); 3: > 100 µM (inactive); 4: 20 µM (inactive); 5: 42.9 µM (inactive); 6: > 100 µM (inactive)

Please report GI50 for every entry that follows.
1. O=c1[nH]c2cc3cccnc3c(Cl)c2nc1C(F)(F)F
2. CN(C)CCCNC(=O)CNC(=O)c1cc(NC(=O)c2cc(NC(=O)c3cc(NC(=O)CCNC(=O)c4cc(NC(=O)c5cc(NC(=O)c6nccn6C)cn5C)cn4C)cn3C)cn2C)cn1C
3. O=C1O/C(=C\c2ccc(O)c(Br)c2)C(c2ccc(O)cc2)=C1Cl
4. COc1ccc(CN2C(=O)[C@@H]3Cc4c(OC)c(C)c(OC)c(OC)c4[C@H](/C2=C\c2cc(OC)c(OC)c(C)c2OC)N3C(=O)OC(C)C)cc1

OUTPUT:
1: 60.7 µM (inactive); 2: > 100 µM (inactive); 3: 27.7 µM (inactive); 4: > 100 µM (inactive)

Please report GI50 for every entry that follows.
1. O=C(NC1C=Nc2ccc([N+](=O)[O-])cc2NC1=O)c1cc(Cl)cc([N+](=O)[O-])c1 (configuration not stated)
2. Cc1cn(C2CC(N)C(C(=O)NCC(=O)O)O2)c(=O)[nH]c1=O (configuration not stated)
3. OCCCCCCCCCCCOc1ccc(C2OCC3(CO2)COC(c2ccc(OCCCCCCCCCCCO)cc2)OC3)cc1 (configuration not stated)

OUTPUT:
1. > 100 µM (inactive)
2. > 100 µM (inactive)
3. > 50 µM (inactive)

The recorded GI50 for entry Cc1[nH]c2ccccc2c1C(=O)CC1(O)C(=O)Nc2ccccc21 (configuration not stated) equals > 100 µM (inactive)

Values were extracted from ChEMBL document CHEMBL1201862.
